Target Desc: TcMCP-1 (Trypanosoma cruzi)
Sequence (Q6ZXC0 entry or part of it): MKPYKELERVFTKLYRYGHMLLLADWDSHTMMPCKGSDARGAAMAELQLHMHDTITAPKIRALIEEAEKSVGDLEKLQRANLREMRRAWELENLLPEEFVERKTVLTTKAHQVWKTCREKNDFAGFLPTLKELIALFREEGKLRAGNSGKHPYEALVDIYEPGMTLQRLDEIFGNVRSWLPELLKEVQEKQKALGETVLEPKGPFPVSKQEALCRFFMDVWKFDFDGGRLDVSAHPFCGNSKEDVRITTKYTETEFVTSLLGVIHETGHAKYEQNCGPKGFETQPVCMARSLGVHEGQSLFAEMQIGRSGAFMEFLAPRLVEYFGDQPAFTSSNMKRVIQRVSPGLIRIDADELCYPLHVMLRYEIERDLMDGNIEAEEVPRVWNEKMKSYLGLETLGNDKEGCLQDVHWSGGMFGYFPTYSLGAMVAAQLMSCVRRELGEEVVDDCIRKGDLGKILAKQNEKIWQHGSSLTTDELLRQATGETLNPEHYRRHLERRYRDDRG
Measurement Protocol: Continuous fluorogenic (FRET) TcMCP-1 assay with Abz-LKFK(Dnp)-OH, primary and secondary screening
Assay type: biochemical
pIC50: −log10 of the molar value.
Observed Property: pIC50

- Cl.NS(=O)(=O)c1ccc(Nc2ncc3cccc(OC4CCNCC4)c3n2)cc1: 4.69
- CC(C)Oc1cccc(N2CCC(C(=O)N3CCCN(C(C)C)CC3)CC2)c1.Cl: 4.58
- CC(C)N(C(=O)CN1C(=O)C(N)C(=O)N(c2ccccc2)c2ccccc21)c1ccccc1 (stereo not shown): 4.41
- Cn1ccnc1CN1CCc2[nH]cnc2C1c1ccccc1OCc1ccccc1 (stereo not shown): 4.58
